This collection of values is drawn from PubChem BioAssay.

Could you please report measured insulin secretion stimulation for the items listed next?
PROTOCOL_NOTES: stimulators of insulin release from INS-1E, primary screen, cell-based, 5 mM glucose, NPC library (AID 1117329); note: reference of the scale not given here
CONDITION_NOTES: rat INS-1E insulin secretion, at 10 µM, hits give high values
Please reply with the bare figure in % and do not write the unit itself.

Inquiry: Param item = O=C(Nc1ccc([N+](=O)[O-])cc1Cl)c1cc(Cl)ccc1O ; retrieve measured insulin secretion stimulation.
Reply text: -1.7

Inquiry: // query: O=C(O)CCNC(=O)c1ccc(N=Nc2ccc(O)c(C(=O)O)c2)cc1
Reply text: 5.4

Inquiry: // query: Cn1nnc2c(C(N)=O)ncn2c1=O
Reply text: 6.3

Inquiry: // query: CN1[C@@H]2CC[C@H]1CC(OC(=O)c1c[nH]c3ccccc13)C2 (stereo partly drawn)
Reply text: 13.7

Inquiry: // query: C[C@@H]1C[C@H]2[C@@H]3C[C@H](F)C4=CC(=O)C=C[C@]4(C)[C@@]3(F)[C@@H](O)C[C@]2(C)[C@@]1(O)C(=O)CO
Reply text: 2.8

Inquiry: // query: CC(Cc1ccccc1)(NC(=O)CN)c1ccccc1 (stereo not drawn)
Reply text: 2.2

Inquiry: // query: CC(C)(C)NC(=O)[C@@H]1CN(Cc2cccnc2)CCN1C[C@@H](O)C[C@@H](Cc1ccccc1)C(=O)N[C@H]1c2ccccc2C[C@H]1O
Reply text: 6.7

Inquiry: // query: O=C(O)CN1C(=O)c2cccc3cccc(c23)C1=O
Reply text: -1.8

Inquiry: // query: Oc1cccc(O)c1
Reply text: -1.9

Inquiry: // query: Nc1ncnc2c1ncn2[C@@H]1O[C@H](CO)[C@@H](O)[C@H]1O
Reply text: 2.7

Inquiry: // query: Cc1scc2c1N(C(=O)CN1CCN(C)CC1)c1ccccc1NC2=O
Reply text: 4

Inquiry: // query: Nc1ccc(S(=O)(=O)Nc2cnc3ccccc3n2)cc1
Reply text: 1.2

Inquiry: // query: NCC1CCC(C(=O)Oc2ccc(CCC(=O)O)cc2)CC1 (stereo not drawn)
Reply text: -2.1

Inquiry: // query: NC(=O)NC(=O)Cc1ccccc1
Reply text: 1.3

Inquiry: // query: COC(=O)C1=C(C)NC(C)=C(C(=O)OC(C)C)C1c1cccc2nonc12 (stereo not drawn)
Reply text: -0.7

Inquiry: // query: Nc1ncnc2c1ncn2[C@@H]1O[C@H](COP(=O)(O)O)[C@@H](O)[C@H]1O
Reply text: 0.05

Inquiry: // query: COCCc1ccc(OCC(O)CNC(C)C)cc1 (stereo not drawn)
Reply text: 5.6

Inquiry: // query: COc1cc(/C=C/C(=O)CC(=O)/C=C/c2ccc(O)c(OC)c2)ccc1O
Reply text: 1.35

Inquiry: // query: O=C1C(O)=C(O)C(=O)C(O)=C1O
Reply text: 1.9

Inquiry: // query: CCn1cc(C(=O)O)c(=O)c2cnc(N3CCNCC3)nc21
Reply text: 1.5

Inquiry: // query: CC1=CC(=O)c2ccccc2C1=O
Reply text: -1.3

Inquiry: // query: Nc1nc2c(ncn2CCC(CO)CO)c(=O)[nH]1
Reply text: -2.4

Inquiry: // query: O=C1CCc2ccc(OCCCCN3CCN(c4cccc(Cl)c4Cl)CC3)cc2N1
Reply text: 3.7

* * *

Test system: Neuropilin-2 / VEGF-C interaction (human)
PROTOCOL_NOTES: small molecules blocking Neuropilin-2/VEGF-C interaction – biochemical, microplate binding format, z-score (AID 743281)
CONDITION_NOTES: microplate NRP2/VEGF-C binding assay; hits give low values
The source made the active and inactive calls. No rule for the calls is given here.
Could you please report measured z-score for the items listed next?

Inquiry: Look up z-score with Neuropilin-2 / VEGF-C interaction (human) for this compound: COc1ccc(C(=O)NCc2ccc(OCCN(C)C)cc2)cc1OC
Reply text: -0.08 (inactive)

Inquiry: // query: CCN1CCN(c2cc3c(cc2F)c(=O)c(C(=O)O)cn3C2CC2)CC1
Reply text: -0.441 (inactive)

Inquiry: // query: CC[C@@]1(O)C(=O)OCc2c1cc1n(c2=O)Cc2cc3c(CN(C)C)c(O)ccc3nc2-1
Reply text: 1.52 (inactive)

Inquiry: // query: Cc1ccnc2c1NC(=O)c1cccnc1N2C1CC1
Reply text: -1.18 (inactive)

Inquiry: // query: OCc1cccnc1
Reply text: -0.624 (inactive)

Inquiry: // query: CN(C)CC[C@@H](c1ccc(Br)cc1)c1ccccn1
Reply text: -0.605 (inactive)

Inquiry: // query: NC1CCN(c2cccc(Cl)n2)CC1
Reply text: -0.326 (inactive)

Inquiry: // query: C[C@H]1COc2c(C3(N)CC3)c(F)cc3c(=O)c(C(=O)O)cn1c23
Reply text: 0.653 (inactive)
